# ASSAY_PROCEDURE: Drug accumulation in tumor to muscle of BALB/c mouse implanted with mouse 4T1 cells at 0.5 mg/kg, iv measured at 4 to 168 hrs
# Type: ADME, organism-based
# APPLIED_CONDITIONS: in vivo, time 4-168 hrs
READOUT_NAME: Drug uptake

COMPOUND	REPORTED_VALUE
CC1(C)C(/C=C/C2=C(Cl)C(=C/C=C3/N(CCCOc4ccc(C(=O)O)cc4)c4ccc5ccccc5c4C3(C)C)/CCC2)=[N+](CCCOc2ccc(C(=O)O)cc2)c2ccc3ccccc3c21.[Br-]	Active
COC(=O)CNC(=O)c1ccc(CN2/C(=C/C=C3\CCCC(/C=C/C4=[N+](Cc5ccc(C(=O)NCC(=O)OC)cc5)c5ccc6ccccc6c5C4(C)C)=C3Cl)C(C)(C)c3c2ccc2ccccc32)cc1.[Br-]	Active
COC(=O)CCC(=O)CNC(=O)c1ccc(CN2/C(=C/C=C3\CCCC(/C=C/C4=[N+](Cc5ccc(C(=O)NCC(=O)CCC(=O)OC)cc5)c5ccccc5C4(C)C)=C3Cl)C(C)(C)c3ccccc32)cc1.[Br-]	Active

* * *

# ASSAY_PROCEDURE: Drug uptake in human NCI-H226 cells assessed as increase in red fluorescence intensity at 5 uM incubated for 30 mins by CY7 staining based microscopic analysis
# Type: ADME, cell-based
# APPLIED_CONDITIONS: nci-h226, 0.5 h

COMPOUND	Drug uptake
COC(=O)CNC(=O)c1ccc(OCCC[N+]2=C(/C=C/C3=C(Cl)C(=C/C=C4/N(Cc5ccc(C(=O)O)cc5)c5ccccc5C4(C)C)/CCC3)C(C)(C)c3ccccc32)cc1.[Br-]	Active
CCN1/C(=C/C=C2\CCCC(/C=C/C3=[N+](Cc4ccc(C(=O)O)cc4)c4ccccc4C3(C)C)=C2Cl)C(C)(C)c2ccccc21.[Br-]	Not_active
CCCN1/C(=C/C=C2\CCCC(/C=C/C3=[N+](Cc4ccc(C(=O)O)cc4)c4ccccc4C3(C)C)=C2Cl)C(C)(C)c2ccccc21.[Br-]	Active
COC(=O)CCC(=O)CNC(=O)c1ccc(CN2/C(=C/C=C3\CCCC(/C=C/C4=[N+](Cc5ccc(C(=O)NCC(=O)CCC(=O)OC)cc5)c5ccccc5C4(C)C)=C3Cl)C(C)(C)c3ccccc32)cc1.[Br-]	Active
CC1(C)C(/C=C/C2=C(Cl)C(=C/C=C3/N(CCCCCC(=O)O)c4ccccc4C3(C)C)/CCC2)=[N+](CCCOc2ccc(C(=O)O)cc2)c2ccccc21.[Br-]	Active
CCCN1/C(=C/C=C2\CCCC(/C=C/C3=[N+](CCCOc4ccc(C(=O)O)cc4)c4ccccc4C3(C)C)=C2Cl)C(C)(C)c2ccccc21.[Br-]	Not_active
CCN1/C(=C/C=C2\CCCC(/C=C/C3=[N+](CCCOc4ccc(C(=O)O)cc4)c4ccccc4C3(C)C)=C2Cl)C(C)(C)c2ccccc21.[Br-]	Active

* * *

# ASSAY_PROCEDURE: Distribution coefficient, logD of compound
# Format: physicochemical
# APPLIED_CONDITIONS: octanol/water
Is logD at least 4? Then yes. If not, no.

COMPOUND	CLASSIFICATION
COC(=O)CNC(=O)c1ccc(CN2/C(=C/C=C3\CCCC(/C=C/C4=[N+](Cc5ccc(C(=O)NCC(=O)OC)cc5)c5ccc6ccccc6c5C4(C)C)=C3Cl)C(C)(C)c3c2ccc2ccccc32)cc1.[Br-]	yes
Cc1ccc2c(c1)C(C)(C)C(/C=C/C1=C(Cl)C(=C/C=C3/N(Cc4ccc(C(=O)O)cc4)c4ccc(C)cc4C3(C)C)/CCC1)=[N+]2Cc1ccc(C(=O)O)cc1.[Br-]	yes
CCCN1/C(=C/C=C2\CCCC(/C=C/C3=[N+](CCCOc4ccc(C(=O)O)cc4)c4ccccc4C3(C)C)=C2Cl)C(C)(C)c2ccccc21.[Br-]	yes
COC(=O)CNC(=O)c1ccc(OCCCN2/C(=C/C=C3\CCCC(/C=C/C4=[N+](CCCOc5ccc(C(=O)NCC(=O)OC)cc5)c5ccc6ccccc6c5C4(C)C)=C3Cl)C(C)(C)c3c2ccc2ccccc32)cc1.[Br-]	yes
CC1(C)C(/C=C/C2=C(Cl)C(=C/C=C3/N(Cc4ccc(C(=O)O)cc4)c4ccc(N)cc4C3(C)C)/CCC2)=[N+](Cc2ccc(C(=O)O)cc2)c2ccc(N)cc21	no
COC(=O)CCC(=O)CNC(=O)c1ccc(CN2/C(=C/C=C3\CCCC(/C=C/C4=[N+](Cc5ccc(C(=O)NCC(=O)CCC(=O)OC)cc5)c5ccccc5C4(C)C)=C3Cl)C(C)(C)c3ccccc32)cc1.[Br-]	yes
CC1(C)C(/C=C/C2=C(Cl)C(=C/C=C3/N(CCOc4ccccc4C(=O)O)c4ccc5ccccc5c4C3(C)C)/CCC2)=[N+](CCOc2ccccc2C(=O)O)c2ccc3ccccc3c21	no
CC1(C)C(/C=C/C=C/C=C/C=C2/N(Cc3ccc(C(=O)O)cc3)c3ccc4ccccc4c3C2(C)C)=[N+](Cc2ccc(C(=O)O)cc2)c2ccc3ccccc3c21.[Br-]	no
